assayNotes: chemical genetic growth profiling, strain panel (AID 1159580);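 note: tested at 20 µM; growth read once vehicle control cultures reached saturation at 30 °C; 1 = growth at the plate median or of vehicle wells; lower values mean less growth of the strain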
statedConditions: S. cerevisiae deletion strains, growth OD, locus YJL187C, strain SWE1 (second series)
Out of some 5,500 compounds screened, about 2,000 (36%) were called active. Roughly 18% stayed inconclusive and do not appear here. Cut-off read from the data, not from the text of the source: active = normalized growth mostly below about 0.91 (no sharp cut-off); inconclusive = no clear call, values can overlap the other calls; inactive = mostly above about 0.92. The list shows a part of the results. Where a SMILES comes first, the peptide text is derived from it. Side-chain parts run from the residue outwards. [ ]: non-standard residue; d: D form. The star is where a group is joined. X1 = CCC(C)C(N)C1=NC(C(=O)*)CS1; Orn = NCCC[CH](N)C(=O)O
Possible outcomes: 1 (active), 0 (inactive)

- molecule: "COc1c2c(cc3c1OCO3)C13C=C[C@H](OC)CC1N(C2)CC3O (stereo partly drawn)"
  group: 0
- molecule: "CC(=O)c1cc2c(cc1O)OC(C)(C)C=C2"
  group: 0
- molecule: "CC1=C(O)C(=O)C=C2C1=CC=C1[C@@]2(C)CC[C@@]2(C)[C@@H]3C[C@](C)(C(=O)O)CC[C@]3(C)CC[C@]12C"
  group: 1
- molecule: "NC(N)=NC(N)=Nc1ccccc1"
  group: 0
- molecule: "O=c1c(O)c(-c2ccc(O)c(O)c2)oc2cc(O)ccc12"
  group: 0
- molecule: "COc1cc(O)cc(OC)c1OC"
  group: 0
- molecule: "CC(=O)N[C@@H](Cc1c[nH]c2ccccc12)C(=O)O"
  group: 0
- molecule: "CO[C@H]1C[C@H](O[C@H]2[C@H](C)[C@@H](OC3O[C@H](C)C[C@H](N(C)C)[C@H]3OC(C)=O)[C@@H](C)C[C@]3(CO3)C(=O)[C@H](C)[C@@H](OC(C)=O)[C@@H](C)[C@@H](C)OC(=O)[C@@H]2C)O[C@@H](C)[C@@H]1OC(C)=O (stereo partly drawn)"
  group: 0
- molecule: "CC(C)CC1NC(=O)C(CCCN)NC(=O)C(C(C)C)NC(=O)C2CCCN2C(=O)C(Cc2ccccc2)NC(=O)C(CC(C)C)NC(=O)C(CCCN)NC(=O)C(C(C)C)NC(=O)C2CCCN2C(=O)C(Cc2ccccc2)NC1=O (stereo not drawn) (cyclo(FPV[Orn]LFPV[Orn]L); configuration not given here)"
  group: 0
- molecule: "CCC(C)C(N)C1=NC(C(=O)NC(CC(C)C)C(=O)NC(CCC(=O)O)C(=O)NC(C(=O)NCCCCC2NC(=O)C(CC(N)=O)NC(=O)C(CC(=O)O)NC(=O)C(Cc3cnc[nH]3)NC(=O)C(Cc3ccccc3)NC(=O)C(C(C)CC)NC(=O)C(CCCN)NC2=O)C(C)CC)CS1 (stereo not drawn) (cyclo(DNK([Ile-Glu-Leu-X1])[Orn]IFH); configuration not given here)"
  group: 0
- molecule: "CC(=O)OCC1=C(C(=O)O)N2C(=O)[C@@H](NC(=O)CCCC(N)C(=O)O)C2SC1 (stereo partly drawn)"
  group: 0
- molecule: "CC(=O)Oc1cccc2c1C(=O)c1c(OC(C)=O)cc(C(=O)O)cc1C2=O"
  group: 0
- molecule: "CCOc1cccc(C(=O)c2ccc(O)c(O)c2O)c1"
  group: 1
- molecule: "CC(=O)CC1CCCCN1 (stereo not drawn)"
  group: 0
- molecule: "O=C(CCBr)N1CCN(C(=O)CCBr)CC1"
  group: 0
- molecule: "O=C(O)c1cc([N+](=O)[O-])ccc1NCCCc1ccccc1"
  group: 0
- molecule: "COc1cc2c(cc1OC)-c1c(oc3c4c(ccc3c1=O)OC(C(C)C)C4)CO2 (stereo not drawn)"
  group: 0
- molecule: "NCCc1c[nH]c2ccccc12"
  group: 0
- molecule: "CC(=O)Oc1cc2c(c(C)c1OC(C)=O)CC1OC13C2(C)CCC1(C)C2CC(C)(C(=O)O)CCC2(C)CCC13C (stereo not drawn)"
  group: 0
- molecule: "COC1(C)CCC2OC2(C)CCC2C1CC2(C)C (stereo not drawn)"
  group: 0
- molecule: "CNC(Cc1c[nH]c2ccccc12)C(=O)O (stereo not drawn)"
  group: 0
- molecule: "CC1(C)C(=O)[C@@H]2C[C@@]3(O)C4=CC(=O)O[C@@H](c5ccoc5)[C@]4(C)CCC3[C@@](C)(C2=O)[C@H]1CC(=O)O (stereo partly drawn)"
  group: 0
- molecule: "NC(=O)N1c2ccccc2C=Cc2ccccc21"
  group: 0
- molecule: "COc1cc2cc3c4cc(OC)c(OC)cc4cc[n+]3c(C)c2cc1OC"
  group: 0
- molecule: "COc1cc(-c2oc3cc(O)ccc3c(=O)c2O)cc(OC)c1OC"
  group: 0
- molecule: "CC1(C)C=Cc2cc3ccc(=O)oc3cc2O1"
  group: 0
- molecule: "COc1c2ccoc2cc2oc(C)cc(=O)c12"
  group: 0
- molecule: "CC(=O)Oc1cccc(C(=O)O)c1OC(C)=O"
  group: 0
